Target: Receptor-type tyrosine-protein kinase FLT3 (Homo sapiens)
Sequence (P36888 whole entry): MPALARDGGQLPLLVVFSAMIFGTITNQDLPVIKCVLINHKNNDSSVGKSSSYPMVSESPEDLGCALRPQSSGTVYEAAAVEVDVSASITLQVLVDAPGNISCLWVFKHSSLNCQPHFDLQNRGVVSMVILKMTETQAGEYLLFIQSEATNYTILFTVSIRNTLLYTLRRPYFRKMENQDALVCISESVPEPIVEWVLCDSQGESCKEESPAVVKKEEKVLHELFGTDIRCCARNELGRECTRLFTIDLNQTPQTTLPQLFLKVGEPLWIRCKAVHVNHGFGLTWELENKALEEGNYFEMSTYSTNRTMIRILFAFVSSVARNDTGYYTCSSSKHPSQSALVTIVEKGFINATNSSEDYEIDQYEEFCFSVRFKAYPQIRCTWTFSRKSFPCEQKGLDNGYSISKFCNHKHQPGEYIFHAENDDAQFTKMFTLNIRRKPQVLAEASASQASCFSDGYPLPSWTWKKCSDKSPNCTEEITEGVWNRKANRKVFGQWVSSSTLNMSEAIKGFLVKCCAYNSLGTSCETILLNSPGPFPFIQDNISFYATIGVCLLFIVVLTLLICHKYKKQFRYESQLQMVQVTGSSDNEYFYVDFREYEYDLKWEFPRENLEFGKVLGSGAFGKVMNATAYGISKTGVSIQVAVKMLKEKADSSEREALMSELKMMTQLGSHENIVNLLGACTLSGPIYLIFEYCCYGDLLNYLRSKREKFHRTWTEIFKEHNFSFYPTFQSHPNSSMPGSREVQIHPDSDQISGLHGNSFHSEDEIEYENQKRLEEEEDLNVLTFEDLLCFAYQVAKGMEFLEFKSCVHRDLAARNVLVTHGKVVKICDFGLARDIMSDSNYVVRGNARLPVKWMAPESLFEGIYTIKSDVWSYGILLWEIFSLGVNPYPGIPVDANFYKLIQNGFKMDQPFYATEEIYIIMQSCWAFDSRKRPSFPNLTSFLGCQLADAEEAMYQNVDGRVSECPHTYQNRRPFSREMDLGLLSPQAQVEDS
Attribute Measured: IC50

Solved entries:
NC(=O)c1c(NC(=O)c2ccc(-c3ccccc3)cc2)sc2c1CCCC2 ... > 10000 nM
CC(=O)Nc1sc2c(c1C(N)=O)CCCC2 ... 2000 nM
NC(=O)c1c(NC(=O)c2cccnc2)sc2c1CCCC2 ... 1100 nM
NC(=O)c1c(NC(=O)c2ccccc2)sc2c1CCCC2 ... 360 nM

Batch: IC50 for all items listed.
1. NC(=O)c1c(NC(=O)C2CCCCC2)sc2c1CCCC2
2. NC(=O)c1c(NC(=O)c2ccccc2Cl)sc2c1CCCC2
3. CC(C)C(=O)Nc1sc2c(c1C(N)=O)CCCC2

RESULT:
["> 10000 nM", "> 10000 nM", "> 10000 nM"]
